// provenance: patent US20180008587A1

Reported Emax values for the following molecules.
Target: wild-type Androgen Receptor (AR-wt) (Homo sapiens, UniProt P10275)
Construct: expressed in transfected cells; host or cells: LNCaP (LNCaP AR (cs))
Sequence (P10275 whole entry): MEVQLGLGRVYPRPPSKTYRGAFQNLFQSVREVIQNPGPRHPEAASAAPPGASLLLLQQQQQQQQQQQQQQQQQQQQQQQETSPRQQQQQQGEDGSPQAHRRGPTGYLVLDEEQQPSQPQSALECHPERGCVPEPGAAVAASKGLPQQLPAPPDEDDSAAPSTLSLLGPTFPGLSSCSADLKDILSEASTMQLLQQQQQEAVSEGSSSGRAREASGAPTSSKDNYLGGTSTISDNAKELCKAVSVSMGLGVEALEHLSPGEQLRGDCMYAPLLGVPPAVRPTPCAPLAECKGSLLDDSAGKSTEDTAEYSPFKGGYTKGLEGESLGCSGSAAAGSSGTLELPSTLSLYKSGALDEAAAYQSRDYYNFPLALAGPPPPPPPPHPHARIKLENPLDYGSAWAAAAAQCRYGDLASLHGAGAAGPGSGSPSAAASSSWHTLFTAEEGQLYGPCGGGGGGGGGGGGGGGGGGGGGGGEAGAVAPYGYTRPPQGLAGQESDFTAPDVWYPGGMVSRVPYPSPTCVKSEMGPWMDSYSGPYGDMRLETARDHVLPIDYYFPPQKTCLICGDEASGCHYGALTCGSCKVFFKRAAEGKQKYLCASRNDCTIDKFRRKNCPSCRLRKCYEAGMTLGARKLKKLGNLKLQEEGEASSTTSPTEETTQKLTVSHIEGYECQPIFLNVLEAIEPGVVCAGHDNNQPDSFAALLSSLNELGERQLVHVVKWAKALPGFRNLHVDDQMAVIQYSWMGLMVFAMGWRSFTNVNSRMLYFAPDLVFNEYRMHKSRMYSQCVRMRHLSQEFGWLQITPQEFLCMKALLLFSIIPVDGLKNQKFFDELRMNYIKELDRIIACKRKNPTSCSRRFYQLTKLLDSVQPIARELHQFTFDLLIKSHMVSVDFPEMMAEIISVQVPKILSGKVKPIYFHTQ
Assay: LNCaP-AR-wt ANT reporter assay (ARE firefly luciferase, antagonist mode)
Format: cell-based
Conditions: maximum % inhibition of R1881 control response over tested concentration range; read-out: LNCaP-AR-wt ANT MAX % Inh
Experimental: A stable pooled-population cell line was generated using puromycin (Life Technologies) selection at 1:10,000 v/v. The protocol below was used for both cell lines and for testing of the compounds of Formula (I) of the present invention. LNCaP cells were grown to about 80% confluence, media removed and cells rinsed in Hank's balanced salt solution prior to separation from the plate with 0.05% Trypsin EDTA. […] After 1 h, plates were read for luminescence on a BMG Pherastar. […]

> print(dat)
                               input.smiles                             target.system  result.value
1  Cc1cc(N2C(=O)C3(CCC3)N(c3ccc(C(=O)Nc4cccc(Cl)c4)c(F)c3)C2=S)cnc1C#N  wild-type Androgen Receptor (AR-wt) (Homo sapiens, UniProt P10275)         96.5%
2  N#Cc1ncc(N2C(=O)C3(CCC3)N(c3ccc(OCCc4ncccn4)c(F)c3)C2=S)cc1C(F)(F)F  wild-type Androgen Receptor (AR-wt) (Homo sapiens, UniProt P10275)         99.7%

Task item: Which Emax reading was recorded for the molecule `N#Cc1ncc(N2C(=O)C3(CCC3)N(c3ccc(C(=O)NCCCN4CCCC4)c(F)c3)C2=S)cc1C(F)(F)F` ?
Reply: 101%

Task item: Which Emax reading was recorded for the molecule `CCCCNC(=O)c1ccc(N2C(=S)N(c3cnc(C#N)c(C(F)(F)F)c3)C(=O)C23CCC3)cc1F` ?
Reply: 102%

Task item: Which Emax reading was recorded for the molecule `Cc1ccc(N2C(=S)N(c3cnc(C#N)c(C(F)(F)F)c3)C(=O)C2(C)C)cc1` ?
Reply: 100%

Task item: Which Emax reading was recorded for the molecule `N#Cc1ncc(N2C(=O)C3(CCC3)N(c3ccc(C(=O)NCc4ccc(Cl)cc4)c(F)c3)C2=S)cc1C(F)(F)F` ?
Reply: 97%

Task item: Which Emax reading was recorded for the molecule `Cc1cc(N2C(=O)C3(CCC3)N(c3ccc(C(=O)NCc4cccs4)c(F)c3)C2=S)cnc1C#N` ?
Reply: 99.6%

Task item: Which Emax reading was recorded for the molecule `CN1CCC(Oc2ccc(N3C(=S)N(c4cnc(C#N)c(C(F)(F)F)c4)C(=O)C34CCC4)cc2)CC1` ?
Reply: 101%
